Origin of the recorded values: patent US20240391954A1

Target: human MC3R (Homo sapiens, UniProt P41968)
Construct: expressed in transfected cells; host or cells: HEK-293 cells stably expressing the GScAMP22F split-luciferase cAMP sensor (parent reporter line from Promega); MC3R clone generated in-house, G418 selection
Sequence (P41968 whole entry): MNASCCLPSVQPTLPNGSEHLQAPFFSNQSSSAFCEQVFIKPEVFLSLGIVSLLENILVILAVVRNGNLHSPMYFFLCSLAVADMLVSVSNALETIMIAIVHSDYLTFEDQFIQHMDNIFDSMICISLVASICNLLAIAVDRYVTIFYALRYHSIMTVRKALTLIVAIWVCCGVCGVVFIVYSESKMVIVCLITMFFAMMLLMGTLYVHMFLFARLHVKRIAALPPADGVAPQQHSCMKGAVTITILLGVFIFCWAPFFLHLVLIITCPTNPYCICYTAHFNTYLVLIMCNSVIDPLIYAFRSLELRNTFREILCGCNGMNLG
Assay: split-luciferase cAMP sensor assay, agonist mode (measurement window 1), hMC3R
Assay type: cell-based
Conditions: agonist mode, hMC3R stable cell line
Procedure: The stable cell lines were grown and maintained in selection media consisting of Dulbecco's modified Eagle media (DMEM) with 4.5 g/l D-glucose, and 4 mM L-glutamine (Thermo Fisher Scientific, Waltham, MA), supplemented with 10% fetal bovine serum, 100 units/ml penicillin, 100 μg/ml streptomycin, 2.5 μg/ml amphotericin B, 200 μg/ml hygromycin B (for positive selection of the GScAMP22f luciferase reporter), and Geneticin™ (G418) 700 μg/ml (for MC3R or MC4R selection). […]
Positions of bridges follow the written chain, without caps; N, C: chain ends. Non-standard residues stand in square brackets, D forms with d. Residues, ends and D or L forms follow the SMILES beside them. dPhe(4-Br) = N[C@H](Cc1ccc(Br)cc1)C(=O)O; Nle = CCCC[C@H](N)C(=O)O

compound	assay_target	MC3R cAMP % max activation
CC(=O)N[C@@H](CCCNC(=N)N)C(=O)N[C@H]1CSSC[C@@H](C(N)=O)NC(=O)[C@@H](Cc2c[nH]c3ccccc23)NC(=O)[C@H](CCCNC(=N)N)NC(=O)[C@@H](Cc2c[nH]c3ccccc23)NC(=O)[C@H](CCCNC(=N)N)NC(=O)[C@@H](C)NC1=O [CTX-1244] (Ac-RC[dA]R[dW]R[dW]C-NH2; disulfide 2-8 (inferred))	human MC3R (Homo sapiens, UniProt P41968)	(10%)
CCCC[C@H](NC(=O)[C@H](CCCNC(=N)N)NC(C)=O)C(=O)N[C@H]1CSSC[C@@H](C(N)=O)NC(=O)[C@H](Cc2c[nH]c3ccccc23)NC(=O)[C@H](CCCNC(=N)N)NC(=O)[C@@H](Cc2ccc(Br)cc2)NC(=O)[C@H](CCCNC(=N)N)NC1=O [CTX-1230] (Ac-R[Nle]CR[dPhe(4-Br)]RWC-NH2; disulfide 3-8)	human MC3R (Homo sapiens, UniProt P41968)	(23%)

* * *

Biological target: human MC3R (Homo sapiens, UniProt P41968)
Construct: expressed in transfected cells; host or cells: HEK-293 cells stably expressing the GScAMP22F split-luciferase cAMP sensor (parent reporter line from Promega); MC3R clone generated in-house, G418 selection
Assay: split-luciferase cAMP sensor assay, agonist mode (measurement window 1), hMC3R
Assay type: cell-based
Settings: % maximal activation, agonist mode; read-out: MC3R cAMP % max activation
Positions of bridges follow the written chain, without caps; N, C: chain ends. Non-standard residues stand in square brackets, D forms with d. Residues, ends and D or L forms follow the SMILES beside them. dPhe(4-Br) = N[C@H](Cc1ccc(Br)cc1)C(=O)O; d2Nal = N[C@H](Cc1ccc2ccccc2c1)C(=O)O; 2Pal = N[C@@H](Cc1ccccn1)C(=O)O; Nle = CCCC[C@H](N)C(=O)O; Aib = CC(C)(N)C(=O)O
Assign class by Emax: not lower than 80% means Yes; lower than 80% means No.

Qu. Say whether CCCC[C@H](NC(=O)[C@H](CCCNC(=N)N)NC(C)=O)C(=O)N[C@H]1CSSC[C@@H](C(N)=O)NC(=O)[C@H](Cc2ccccc2)NC(=O)[C@H](CCCNC(=N)N)NC(=O)[C@@H](Cc2ccc(Br)cc2)NC(=O)[C@H](CCCNC(=N)N)NC1=O [CTX-1623] (Ac-R[Nle]CR[dPhe(4-Br)]RFC-NH2; disulfide 3-8) shows Emax of 80% or more.
Ans. No

Qu. Same read-out for CC(=O)N[C@@H](CCCNC(=N)N)C(=O)N[C@H]1CSSC[C@@H](C(N)=O)NC(=O)[C@@H](Cc2ccc3ccccc3c2)NC(=O)[C@H](CCCNC(=N)N)NC(=O)[C@@H](Cc2ccccc2)NC(=O)[C@H](CCCNC(=N)N)NC(=O)[C@@H](C)NC1=O [CTX-1264] (Ac-RC[dA]R[dF]R[d2Nal]C-NH2; disulfide 2-8 (inferred)) ?
Ans. No

Qu. Same read-out for CC1(C)NC(=O)CSC[C@@H](C(N)=O)NC(=O)[C@H](Cc2c[nH]c3ccccc23)NC(=O)[C@H](CCCNC(=N)N)NC(=O)[C@@H](Cc2ccccc2)NC(=O)[C@H](Cc2c[nH]cn2)NC1=O ?
Ans. Yes

Qu. Same read-out for N=C(N)NCCC[C@@H]1NC(=O)CNC(=O)CSC[C@@H](C(N)=O)NC(=O)[C@H](Cc2c[nH]c3ccccc23)NC(=O)[C@H](CCCNC(=N)N)NC(=O)[C@@H](Cc2ccccc2)NC1=O [CTX-1645] ({CH2CO}-GR[dF]RWC-NH2; thioether N-6) ?
Ans. Yes

Qu. Same read-out for CC(=O)N[C@H]1CSSC[C@@H](C(N)=O)NC(=O)[C@H](Cc2ccccc2)NC(=O)[C@H](CCCNC(=N)N)NC(=O)[C@@H](Cc2ccccc2)NC(=O)[C@H](CCCNC(=N)N)NC(=O)CNC1=O [CTX-1638, cyclo(Cys-Gly-Arg-D-Phe-Arg-Phe-Cys)] (Ac-CGR[dF]RFC-NH2; disulfide 1-7) ?
Ans. No

Qu. Same read-out for CC(=O)N[C@@H](CCCNC(=N)N)C(=O)N[C@H]1CSSC[C@@H](C(N)=O)NC(=O)[C@H](Cc2c[nH]c3ccccc23)NC(=O)[C@H](CCCNC(=N)N)NC(=O)[C@@H](Cc2ccccc2)NC(=O)[C@H](CCCNC(=N)N)NC(=O)[C@@H](C)NC1=O [CTX-1211] (Ac-RC[dA]R[dF]RWC-NH2; disulfide 2-8 (inferred)) ?
Ans. Yes

Qu. Same read-out for CC1(C)NC(=O)CSC[C@@H](C(N)=O)NC(=O)[C@H](Cc2c[nH]c3ccccc23)NC(=O)[C@H](CCCNC(=N)N)NC(=O)[C@@H](Cc2ccccc2)NC(=O)[C@H](CCCNC(=N)N)NC1=O [CTX-1648] ({CH2CO}-[Aib]R[dF]RWC-NH2; thioether N-6) ?
Ans. Yes

Qu. Same read-out for CC(=O)N[C@H]1CSSC[C@@H](C(N)=O)NC(=O)[C@H](Cc2ccccc2)NC(=O)[C@H](CCCNC(=N)N)NC(=O)[C@@H](Cc2ccccc2)NC(=O)[C@H](CCCNC(=N)N)NC(=O)C(C)(C)NC1=O [CTX-1635, cyclo(Cys-Aib-Arg-D-Phe-Arg-Phe-Cys)] (Ac-C[Aib]R[dF]RFC-NH2; disulfide 1-7 (inferred)) ?
Ans. No

Qu. Same read-out for CC(=O)N[C@@H](CCCNC(=N)N)C(=O)N[C@H]1CSSC[C@@H](C(N)=O)NC(=O)[C@@H](Cc2c[nH]c3ccccc23)NC(=O)[C@H](CCCNC(=N)N)NC(=O)[C@@H](Cc2ccccc2)NC(=O)[C@H](CCCNC(=N)N)NC(=O)[C@H](C)NC1=O [CTX-1268] (Ac-RCAR[dF]R[dW]C-NH2; disulfide 2-8) ?
Ans. No

Qu. Same read-out for CC(=O)N[C@@H](CCCNC(=N)N)C(=O)N[C@H]1CSSC[C@@H](C(N)=O)NC(=O)[C@@H](Cc2c[nH]c3ccccc23)NC(=O)[C@H](CCCNC(=N)N)NC(=O)[C@@H](Cc2ccccc2)NC(=O)[C@H](Cc2c[nH]cn2)NC(=O)[C@@H](C)NC1=O ?
Ans. No

Qu. Same read-out for C[C@H]1NC(=O)CSC[C@@H](C(N)=O)NC(=O)[C@H](Cc2ccccc2)NC(=O)[C@H](CCCNC(=N)N)NC(=O)[C@@H](Cc2ccccc2)NC(=O)[C@H](Cc2c[nH]cn2)NC1=O [CTX-1656] ({CH2CO}-[dA]H[dF]RFC-NH2; thioether N-6) ?
Ans. Yes

Qu. Same read-out for CC(=O)N[C@@H](CCCNC(=N)N)C(=O)N[C@H]1CSSC[C@@H](C(N)=O)NC(=O)[C@H](Cc2ccccc2)NC(=O)[C@H](CCCNC(=N)N)NC(=O)[C@@H](Cc2ccccc2)NC(=O)[C@H](Cc2ccccn2)NC(=O)C(C)(C)NC1=O [CTX-1604] (Ac-RC[Aib][2Pal][dF]RFC-NH2; disulfide 2-8 (inferred)) ?
Ans. No
